Recorded values, source ChEMBL document CHEMBL1147590.

Entries and their measured Rate of inhibition follow.
# System: P388
# experimentalProtocol: In vitro rate of inhibition of P388 tumor cell growth at 10E-6 mol/L
# Type: functional, Mus musculus
# conditionContext: at 1 µM
Respond numerically; units are % and should not be typed.

A selection of reference data follows.
# compound, assayedTarget, unitAbbrev, testValue
data = [
    ("Clc1ccc(-c2nnc(-c3ccc(Cl)cc3)nn2)cc1", "P388", "%", 29),
    ("CCCC1=NN(C(=O)OC)C(CCC)N=N1 (stereo unspecified)", "P388", "%", 4.5),
    ("CCCOC(=O)N1N=C(C)N=NC1C (stereo unspecified)", "P388", "%", 9),
    ("CCCC1=NN(C(=O)OCC)C(CCC)N=N1 (stereo unspecified)", "P388", "%", 2.2),
    ("CC(=O)N1N=C(c2ccccc2)NN=C1c1ccccc1", "P388", "%", 6.6),
]

Consider the additional compound presented here.
Ask: Which Rate of inhibition value belongs to COc1cc(NC(=O)N2N=C(C)N(C(=O)Nc3cc(OC)cc(OC)c3)N=C2C)cc(OC)c1 ?
Reply: 88.9

* * *

# Test system: P388
# experimentalProtocol: In vitro rate of inhibition of P388 tumor cell growth at 10E-4 mol/L
# Assay type: functional, Mus musculus
# conditionContext: at 100 µM
Rate of inhibition by entry:
Write your answer as a measured quantity: the number, then the unit.

# molecule, assayedTarget, testReadout, testValue
records = [
    ("CC1=NNC(C)N=N1 (stereo unspecified)", "P388", "Rate of inhibition", "100%"),
    ("CCC1=NN(C(=O)Nc2cccc(C)c2)C(CC)=NN1C(=O)Nc1cccc(C)c1", "P388", "Rate of inhibition", "91.6%"),
    ("Clc1cccc(-c2nnc(-c3cccc(Cl)c3)nn2)c1", "P388", "Rate of inhibition", "40.3%"),
    ("Clc1ccc(-c2nnc(-c3ccc(Cl)cc3)nn2)cc1", "P388", "Rate of inhibition", "52.3%"),
    ("Clc1ccccc1-c1nnc(-c2ccccc2Cl)nn1 [CLOFENTEZINE]", "P388", "Rate of inhibition", "8.2%"),
]

Lab note: next molecule to report on.
Ask: Entry CCC1NN(C(C)=O)C(CC)NN1C(C)=O (stereo unspecified) : reported Rate of inhibition = ?
Reply: 38.9%

* * *

# Tested on: P388
# experimentalProtocol: In vitro rate of inhibition of P388 tumor cell growth at 10E-4 mol/L
# Assay type: functional, Mus musculus
# conditionContext: at 100 µM
testReadout: Rate of inhibition (%)
// note: answer is a bare numeric in %

The following molecules have reported results that may help.
# molecule, assayedTarget, Rate of inhibition (%)
data = [
    ("CC1=NN(C(=O)NCc2ccccc2)C(C)=NN1C(=O)NCc1ccccc1", "P388", 92.8),
    ("CCCOC(=O)N1N=C(C)N=NC1C (stereo unspecified)", "P388", 34.8),
    ("CC1=NN(C(=O)Nc2cccc(C)c2)C(C)=NN1C(=O)Nc1cccc(C)c1", "P388", 96.8),
    ("CCCC1=NN(C(=O)OCCC(C)C)C(CCC)N=N1 (stereo unspecified)", "P388", 83.5),
    ("CC1=NN(C(=O)Nc2ccccc2Cl)C(C)=NN1C(=O)Nc1ccccc1Cl", "P388", 90.5),
]

Ask: Query: Rate of inhibition; subject: CCCOC(=O)N1C(c2ccccc2)=NN=C(c2ccccc2)N1C(=O)OCCC
Reply: 80.9

Ask: Query CCCCC1NN(C(C)=O)C(CCCC)NN1C(C)=O (stereo unspecified) next
Reply: 37.9

Ask: Same lookup for CC1=NN(C(=O)Nc2ccccc2)C(C)=NN1C(=O)Nc1ccccc1 , please.
Reply: 89.1

Ask: Let us now turn to COc1cccc(NC(=O)N2N=C(C)N(C(=O)Nc3cccc(OC)c3)N=C2C)c1
Reply: 95.3

Ask: Also need Cc1cccnc1-c1nnc(-c2ncccc2C)nn1 , thanks.
Reply: 2.6

Ask: Let us now turn to COc1ccc(NC(=O)N2N=C(C)N(C(=O)Nc3ccc(OC)cc3)N=C2C)cc1
Reply: 73
